- MEASURED TARGET: human LPAR1 (Homo sapiens, UniProt Q92633)
- Sequence (Q92633 whole entry): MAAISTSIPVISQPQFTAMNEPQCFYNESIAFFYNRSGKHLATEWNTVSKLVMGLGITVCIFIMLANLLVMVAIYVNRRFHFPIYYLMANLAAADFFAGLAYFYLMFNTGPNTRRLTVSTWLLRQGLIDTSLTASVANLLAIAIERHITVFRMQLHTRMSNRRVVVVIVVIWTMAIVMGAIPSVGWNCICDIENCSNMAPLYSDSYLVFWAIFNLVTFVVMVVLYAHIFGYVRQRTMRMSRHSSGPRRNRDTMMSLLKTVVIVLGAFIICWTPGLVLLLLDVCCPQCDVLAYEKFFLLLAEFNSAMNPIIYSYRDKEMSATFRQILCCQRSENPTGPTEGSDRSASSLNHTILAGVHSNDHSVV
- METHOD DESCRIPTION: LPAR1 intracellular calcium mobilization assay (antagonist mode, FLIPR)
- Assay type: cell-based
- CONDITIONS USED: CHO-K1 EDG2 cells expressing human LPAR1; test compound 0.5 nM to 10 μM pre-incubated 60 minutes at 37° C., then LPA 18:2 at EC80 concentration (100 nM)
QUANTITY MEASURED: EC50

| MOLECULE | RESULT |
| --- | --- |
| C[C@@H](OC(=O)Nc1c(-c2ccc(C(=O)Nc3ccnc(C(F)(F)F)c3)cn2)nnn1C)c1cc(F)cnc1F [Compound 19] | 16.6 nM |

Exam item: Recorded EC50 for Cc1nnc(-c2ccc(NC(=O)c3ccc(-c4nnn(C)c4NC(=O)O[C@H](C)c4cc(F)cnc4F)nc3)cc2)o1 [Compound 39] , please?
Marked response: 9.1 nM

Exam item: Now this one: C[C@@H](OC(=O)Nc1c(-c2ccc(C(=O)NC34CC(c5ccccc5)(C3)C4)cn2)nnn1C)c1cc(F)cnc1F [Compound 26]
Marked response: < 4.6 nM

Exam item: Now this one: C[C@@H](OC(=O)Nc1c(-c2ccc(C(=O)Nc3ncc(C(F)(F)F)s3)cn2)nnn1C)c1cc(F)cnc1Cl [Compound 53]
Marked response: 19.4 nM

Exam item: Now this one: C[C@@H](OC(=O)Nc1c(-c2ccc(C(=O)Nc3ccnc(OC(F)F)c3)cn2)nnn1C)c1cc(F)cnc1F [Compound 33]
Marked response: 273 nM

---

- MEASURED TARGET: human LPAR1 (Homo sapiens, UniProt Q92633)
- METHOD DESCRIPTION: LPAR1 intracellular calcium mobilization assay (antagonist mode, FLIPR)
- Type: cell-based
- CONDITIONS USED: CHO-K1 EDG2 cells expressing human LPAR1; test compound 0.5 nM to 10 μM pre-incubated 60 minutes at 37° C., then LPA 18:2 at EC80 concentration (100 nM)
QUANTITY MEASURED: EC50

Example cases with answers are listed next.
| SMILES ENTRY | EC50 |
| --- | --- |
| C[C@@H](OC(=O)Nc1c(-c2ccc(C(=O)NC34CC(S(C)(=O)=O)(C3)C4)cn2)nnn1C)c1cc(F)cnc1F | 3420 nM |
| COC12CC(NC(=O)c3ccc(-c4nnn(C)c4NC(=O)O[C@H](C)c4cccnc4Cl)nc3)(C1)C2 | 62.7 nM |

Proceeding to the next compound to report its EC50.
Exam item: Record C[C@@H](OC(=O)Nc1c(-c2ccc(C(=O)NC34CC(C(F)F)(C3)C4)cn2)nnn1C)c1cc(F)cnc1F : what is its EC50 with human LPAR1 (Homo sapiens, UniProt Q92633)?
Marked response: 159 nM

---

- MEASURED TARGET: human LPAR1 (Homo sapiens, UniProt Q92633)
- METHOD DESCRIPTION: LPAR1 intracellular calcium mobilization assay (antagonist mode, FLIPR)
- Type: cell-based
- CONDITIONS USED: CHO-K1 EDG2 cells expressing human LPAR1; test compound 0.5 nM to 10 μM pre-incubated 60 minutes at 37° C., then LPA 18:2 at EC80 concentration (100 nM)
QUANTITY MEASURED: log10(EC50) (log10 of the value in nM)
Log10 applied to EC50; unit prior to transform: nM.

Example cases with answers are listed next.
| SMILES ENTRY | log10(EC50) |
| --- | --- |
| C[C@@H](OC(=O)Nc1c(-c2ccc(C(=O)NC34CC(F)(C3)C4)cn2)nnn1C)c1cccnc1Cl | 2.15 |
| C[C@@H](OC(=O)Nc1c(-c2ccc(C(=O)Nc3ccc(-c4ccccc4)cc3)cn2)nnn1C)c1cc(F)cnc1F | 1.19 |
| C[C@@H](OC(=O)Nc1c(-c2ccc(C(=O)Nc3ccnc(C#N)c3)cn2)nnn1C)c1cc(F)cnc1Cl | 0.94 |

Exam item: Recorded log10(EC50) for C[C@@H](OC(=O)Nc1c(-c2ncc(C(=O)NC34CC(F)(C3)C4)cc2F)nnn1C)c1cccnc1Cl , please?
Marked response: 1.97

Exam item: Now this one: C[C@@H](OC(=O)Nc1c(-c2ccc(C(=O)NC34CC(C#N)(C3)C4)c(C(F)(F)F)n2)nnn1C)c1cccnc1Cl
Marked response: 1.16

---

- MEASURED TARGET: human LPAR1 (Homo sapiens, UniProt Q92633)
- METHOD DESCRIPTION: LPAR1 intracellular calcium mobilization assay (antagonist mode, FLIPR)
- Format: cell-based
- CONDITIONS USED: CHO-K1 EDG2 cells expressing human LPAR1; test compound 0.5 nM to 10 μM pre-incubated 60 minutes at 37° C., then LPA 18:2 at EC80 concentration (100 nM)
As shown below, each of these compounds has a reported EC50 value.

Example cases with answers are listed next.
| SMILES ENTRY | QUANTITY MEASURED | RESULT |
| --- | --- | --- |
| C[C@@H](OC(=O)Nc1c(-c2ccc(C(=O)Nc3ccc(F)nc3)cn2)nnn1C)c1cccnc1Cl | EC50 | 325 nM |
| C[C@@H](OC(=O)Nc1c(-c2ccc(C(=O)NC34CC(F)(C3)C4)cn2)nnn1C)c1cc(F)cnc1Cl | EC50 | 88.1 nM |
| C[C@@H](OC(=O)Nc1c(-c2ccc(C(=O)Nc3cc(Cl)nc(Cl)c3)cn2)nnn1C)c1cc(F)cnc1Cl | EC50 | < 4.6 nM |
| C[C@@H](OC(=O)Nc1c(-c2ccc(C(=O)NC34CC(F)(C3)C4)c(Cl)n2)nnn1C)c1cccnc1Cl | EC50 | 93.4 nM |

Exam item: Record C[C@@H](OC(=O)Nc1c(-c2ccc(C(=O)NC34CC(C#N)(C3)C4)cn2)nnn1C)c1cccnc1Cl : what is its EC50 with human LPAR1 (Homo sapiens, UniProt Q92633)?
Marked response: 42.9 nM
